CC50 at 24 h overview
Test: in vitro
Settings: human
Positions of bridges follow the written chain, without caps; N, C: chain ends. Non-standard residues stand in square brackets, D forms with d. Residues, ends and D or L forms follow the SMILES beside them. *: point of attachment. dPhe(4-CN) = N#Cc1ccc(C[C@@H](N)C(=O)O)cc1; Decanoyl(3R-OH) = CCCCCCC[C@@H](O)CC(=O)*; 1Nal = N[C@@H](Cc1cccc2ccccc12)C(=O)O; dIgl = N[C@@H](C(=O)O)C1Cc2ccccc2C1; Undecanoyl = CCCCCCCCCCC(=O)*; dDab = NCC[C@@H](N)C(=O)O; dDap = NC[C@@H](N)C(=O)O; Dab = NCC[C@H](N)C(=O)O
endpoint: CC50 at 24 h (µM)

• CCCCCCC[C@@H](O)CC(=O)N[C@H](CCN)C(=O)N[C@H]1CCNC(=O)[C@H](Cc2c[nH]c3ccccc23)NC(=O)[C@H](CCN)NC(=O)[C@H](CCN)NC(=O)[C@H](CC(C)C)NC(=O)[C@@H](Cc2ccc(C#N)cc2)NC(=O)[C@H](CCN)NC1=O [compound 8105] ({Decanoyl(3R-OH)}-[dDab][Dab][Dab][dPhe(4-CN)]L[Dab][Dab]W; lactam 2-C) = 107
• CCCCCCC[C@@H](O)CC(=O)N[C@H](CCN)C(=O)N[C@H]1CCNC(=O)[C@H](Cc2c[nH]c3ccccc23)NC(=O)[C@H](CCN)NC(=O)[C@H](CCN)NC(=O)[C@H](CC(C)C)NC(=O)[C@@H](C2Cc3ccccc3C2)NC(=O)[C@H](CCN)NC1=O [compound 8826] ({Decanoyl(3R-OH)}-[dDab][Dab][Dab][dIgl]L[Dab][Dab]W; lactam 2-C) = 38
• CCCCCCC[C@@H](O)CC(=O)N[C@H](CCN)C(=O)N[C@H]1CCNC(=O)[C@H](Cc2cccc3ccccc23)NC(=O)[C@H](CCN)NC(=O)[C@H](CCN)NC(=O)[C@H](CC(C)C)NC(=O)[C@@H](Cc2ccccc2)NC(=O)[C@H](CCN)NC1=O [compound 8909] ({Decanoyl(3R-OH)}-[dDab][Dab][Dab][dF]L[Dab][Dab][1Nal]; lactam 2-C) = 26
• CCCCCCCCCCC(=O)N[C@H](CN)C(=O)N[C@H]1CCNC(=O)[C@H](CC(C)C)NC(=O)[C@H](CCN)NC(=O)[C@H](CCN)NC(=O)[C@H](CC(C)C)NC(=O)[C@@H](Cc2ccccc2)NC(=O)[C@H](CCN)NC1=O [compound 9296] (Undecanoyl-[dDap][Dab][Dab][dF]L[Dab][Dab]L; lactam 2-C) = 63

====

Test system: K. pneumoniae GN_106, PmxR
Conditions: GN 106, PmxR
Positions of bridges follow the written chain, without caps; N, C: chain ends. Non-standard residues stand in square brackets, D forms with d. Residues, ends and D or L forms follow the SMILES beside them. *: point of attachment. Decanoyl(3R-OH) = CCCCCCC[C@@H](O)CC(=O)*; dDab = NCC[C@@H](N)C(=O)O; Octanoyl = CCCCCCCC(=O)*; Dab = NCC[C@H](N)C(=O)O
endpoint: MIC K. pneumoniae GN_106, PmxR

• CCCCCCC[C@@H](O)CC(=O)N[C@H](CCN)C(=O)N[C@H]1CCNC(=O)[C@H]([C@@H](C)O)NC(=O)[C@H](CCN)NC(=O)[C@H](CCN)NC(=O)[C@H](CC(C)C)NC(=O)[C@@H](Cc2ccccc2)NC(=O)[C@H](CCN)NC1=O [compound 5387] ({Decanoyl(3R-OH)}-[dDab][Dab][Dab][dF]L[Dab][Dab]T; lactam 2-C) = >32 µg/mL
• CCCCCCCC(=O)N[C@H](CCN)C(=O)N[C@H]1CCNC(=O)[C@H]([C@@H](C)O)NC(=O)[C@H](CCN)NC(=O)[C@H](CCN)NC(=O)[C@H](CC(C)C)NC(=O)[C@@H](Cc2ccccc2)NC(=O)[C@H](CCN)NC1=O [compound 6399] (Octanoyl-[dDab][Dab][Dab][dF]L[Dab][Dab]T; lactam 2-C) = >32 µg/mL
• CCCCCCC[C@@H](O)CC(=O)N[C@H](Cc1c[nH]c2ccccc12)C(=O)N[C@H]1CCNC(=O)[C@H](CC(C)C)NC(=O)[C@H](CCN)NC(=O)[C@H](CCN)NC(=O)[C@H](CC(C)C)NC(=O)[C@@H](Cc2ccccc2)NC(=O)[C@H](CCN)NC1=O [compound 6441] ({Decanoyl(3R-OH)}-[dW][Dab][Dab][dF]L[Dab][Dab]L; lactam 2-C) = 4 µg/mL
